Exercise: state measured selectivity ratio for each of the compounds provided.
assay: Selectivity ratio of IC50 for human BEAS-2B cells to IC50 for human A549 cells; format: toxicity; conditions: BEAS-2B cells versus A549 cells, read-out: Ratio IC50
Give bare numbers.

COc1ccc(-c2cnc(C(=O)Nc3ccc(O)cc3)o2)cc1F :: 2.17

Give selectivity ratio for each listed item.
1. O=C(Nc1ccc(O)cc1)c1ncc(-c2ccccc2)o1
2. COc1ccc(-c2cnc(C(=O)Nc3ccc(O)cc3)o2)cc1

[3.11, 2.37]
